Catalogue of compounds with associated melting point

Example results:
| line-notation | readout-value |
| --- | --- |
| Cc1ccc(S(=O)(=O)N(C)c2ccc(Oc3ccc4cc(C(=O)N5CCN(Cc6ccc(OC(C)C)nc6)CC5)n(C)c4c3)nc2)cc1 | 131.1 to 132.8 °C |
| Br.Cn1c(C(=O)N2CCN(Cc3ccc4c(c3)OCO4)CC2)cc2ccc(Oc3ccc(NC(=O)c4ccc(Cl)c(Cl)c4)cn3)cc21 | 241.3 to 243.9 °C |
| Br.CN(C(=O)c1ccc(C(F)(F)F)cc1Cl)c1ccc(Oc2ccc3cc(C(=O)N4CCN(Cc5ccc(OCCF)cc5)CC4)n(C)c3c2)nc1 | 223.6 to 225.4 °C |
| Br.CN(C(=O)c1ccc(OC(F)F)cc1)c1ccc(Oc2ccc3cc(C(=O)N4CCN(Cc5ccc(OCC(F)F)cc5)CC4)n(C)c3c2)nc1 | 196.9 to 198.6 °C |
| Br.CCCc1ccc(CN2CCN(C(=O)c3cc4ccc(Oc5ccc(NC(=O)c6ccc(C(F)(F)F)cc6)cn5)cc4n3C)CC2)cc1 | 267 to 268.2 °C |

## Task Dear colleague, please send me the reported melting point for `Br.CC(C)Oc1ccc(CN2CCN(C(=O)c3cc4ccc(Oc5ccc(N(C)C(=O)c6ccc(Cl)c(Cl)c6)cn5)cc4n3C)CC2)cc1` when you can.
## Result 220.2 to 223.5 °C

## Task Dear colleague, please send me the reported melting point for `Br.CN(c1ccc(C(F)(F)F)cc1)c1ccc(Oc2ccc3c(c2)cc(C(=O)N2CCN(Cc4ccc5c(c4)OCO5)CC2)n3C)nc1` when you can.
## Result 211 to 215 °C

## Task Dear colleague, please send me the reported melting point for `COc1ccc(CN2CCN(C(=O)c3cc4c(C)c(Oc5ccc(N(C)C(=O)c6ccc(C(F)(F)F)cc6)cn5)ccc4n3C)CC2)cc1` when you can.
## Result 184 to 186 °C

----------
assay-readout: melting point

Example results:
| line-notation | melting point |
| --- | --- |
| Cc1ccc(S(=O)(=O)N(C)c2cnc(Oc3ccc4cc(C(=O)N5CCN(Cc6ccc(OC(C)C)cc6)CC5)n(C)c4c3)nc2)cc1 | 154.3 to 155.1 °C |
| CC(C)c1ccc(CN2CCN(C(=O)c3cc4cc(Oc5ccc(N(C)C(=O)c6ccc(C(F)(F)F)cc6)cn5)ccc4n3C)CC2)cc1.O=C(O)/C=C\C(=O)O | 129 to 131 °C |
| Br.CN(C(=O)c1ccc(C(F)(F)F)cc1Cl)c1ccc(Oc2ccc3cc(C(=O)N4CCN(Cc5ccc(OCC(F)(F)F)cc5)CC4)n(C)c3c2)nc1 | 239.5 to 240.6 °C |
| Br.Br.Cc1cc(Oc2ccc3c(c2)cc(C(=O)N2CCN(Cc4cccnc4)CC2)n3C)ncc1NC(=O)c1ccc(C(F)(F)F)cc1 | 215 to 217 °C |

# next molecule below
## Task Dear colleague, please send me the reported melting point for `COc1ccc(CN2CCN(C(=O)c3cc4cc(Oc5ccc(N(C)C(=O)c6ccc(C(F)(F)F)cc6O)cn5)ccc4n3C)CC2)cc1.O=C(O)C(=O)O` when you can.
## Result 171 to 173 °C

----------
assay-readout: melting point

Example results:
| line-notation | melting point |
| --- | --- |
| Br.CCCOc1ccc(CN2CCN(C(=O)c3cc4ccc(Oc5ccc(NC(=O)c6ccc(C(F)(F)F)cc6)cn5)cc4n3C)CC2)cc1 | 254 to 255.7 °C |
| Br.CN(C(=O)c1ccc(Cl)c(Cl)c1)c1ccc(Oc2ccc3cc(C(=O)N4CCN(Cc5ccc(OCC(F)F)cc5)CC4)n(C)c3c2)nc1 | 182.4 to 184.6 °C |
| CC(C)CCOc1ccc(CN2CCN(C(=O)c3cc4ccc(Oc5ccc(N(C)S(=O)(=O)c6ccc(Cl)c(Cl)c6)cn5)cc4n3C)CC2)cc1 | 145.9 to 147.1 °C |

# next molecule below
## Task Dear colleague, please send me the reported melting point for `Br.Cn1c(C(=O)N2CCN(Cc3ccc(OC(F)F)cc3)CC2)cc2ccc(Oc3ccc(NC(=O)c4ccc(Cl)c(Cl)c4)cn3)cc21` when you can.
## Result 249 to 253.7 °C

----------
assay-readout: melting point

Example results:
| molecule | melting point |
| --- | --- |
| Br.CN(C(=O)c1ccc(C(F)(F)F)cc1)c1ccc(Oc2ccc3cc(C(=O)N4CCN(Cc5ccc(OCC(F)(F)F)cc5)CC4)n(C)c3c2)nc1 [Example 436] | 225 to 226.4 °C |
| Br.COc1ccc(CN2CCN(C(=O)c3cc4cc(Oc5ccc(NC(=O)c6ccc(C(F)(F)F)cc6)cn5)ccc4n3C)CC2)cc1OC [Example 350] | 233 to 235 °C |
| CC(C)Oc1ccc(CN2CCN(C(=O)c3cc4ccc(Oc5ccc(N(C)S(=O)(=O)c6ccc(Cl)c(Cl)c6)cn5)cc4n3C)CC2)cn1 [Example 517] | 179.1 to 179.7 °C |
| Cc1cc(Oc2ccc3cc(C(=O)N4CCN(Cc5ccc(OC(C)C)cc5)CC4)n(C)c3c2)ncc1N(C)S(=O)(=O)c1ccc(Cl)c(Cl)c1 [Example 313] | 151 to 151.6 °C |
| Br.COc1ccc(CN2CCN(C(=O)c3cc4cc(Oc5ccc(NC(=O)c6ccc(OC(F)(F)F)cc6)cn5)ccc4n3C)CC2)cc1 [Example 17] | 226 to 227 °C |
| Br.Cn1c(C(=O)N2CCN(Cc3ccccc3)CC2)cc2cc(Oc3ccc(NCc4ccc(Cl)c(Cl)c4)cn3)ccc21 [Example 334] | 209 to 217 °C |
| Cl.Cn1c(C(=O)N2CCN(Cc3ccc(OCC(F)F)cc3)CC2)cc2ccc(Oc3ncc(NC(=O)c4ccc(C(F)(F)F)cc4)cn3)cc21 | 251.4 to 253.5 °C |
| COc1ccc(CN2CCN(C(=O)c3cc4cc(Oc5ccc(N(C)C(=O)c6ccc(C(F)(F)F)cc6Cl)cn5)ccc4n3C)CC2)cc1.O=C(O)C(=O)O [Example 16] | 163 to 165 °C |

## Task Dear colleague, please send me the reported melting point for Cc1ccc(S(=O)(=O)N(C)c2ccc(Oc3ccc4cc(C(=O)N5CCN(Cc6ccc(OC(C)C)cc6)CC5)n(C)c4c3)nc2)cc1 [Example 525] when you can.
## Result 140.9 to 145.8 °C

----------
Catalogue of molecules with associated melting point

Example results:
| line-notation | melting point |
| --- | --- |
| CN(C(=O)Nc1ccc(Cl)c(Cl)c1)c1ccc(Oc2ccc3c(c2)cc(C(=O)N2CCN(Cc4ccc5c(c4)OCO5)CC2)n3C)nc1.Cl | 240 to 243 °C |
| Br.COCc1ccc(CN2CCN(C(=O)c3cc4ccc(Oc5ccc(NC(=O)c6ccc(Cl)c(Cl)c6)cn5)cc4n3C)CC2)cc1 | 243.6 to 247.7 °C |

## Task Dear colleague, please send me the reported melting point for `COc1ccc(CN2CCN(C(=O)c3cc4cc(Oc5ccc(CNC(=O)c6ccc(C(F)(F)F)cn6)cn5)ccc4n3C)CC2)cc1.O=C(O)C(=O)O.O=C(O)C(=O)O` when you can.
## Result 152 to 154 °C

----------
assay-readout: melting point

Example results:
| compound | melting point |
| --- | --- |
| COCc1ccc(CN2CCN(C(=O)c3cc4cc(Oc5ccc(N(C)C(=O)c6ccc(Cl)c(Cl)c6)cn5)ccc4n3C)CC2)cc1.O=C(O)/C=C\C(=O)O [Example 376] | 100 to 101 °C |
| Cc1ccc(S(=O)(=O)N(C)c2ccc(Oc3ccc4cc(C(=O)N5CCN(Cc6ccc(OCC7CC7)cc6)CC5)n(C)c4c3)nc2)cc1 [Example 530] | 135.6 to 138.6 °C |
| Cn1c(C(=O)N2CCN(Cc3ccc(OC(CF)CF)cc3)CC2)cc2ccc(Oc3ccc(NS(=O)(=O)C4=CC=C(Cl)C(C)(Cl)C4)cn3)cc21 (stereo not drawn) [Example 506] | 157.7 to 160.2 °C |
| C[C@H]1CN(Cc2ccccn2)CCN1C(=O)c1cc2cc(Oc3ccc(NC(=O)c4ccc(C(F)(F)F)cc4)cn3)ccc2n1C.O=C(O)C(=O)O.O=C(O)C(=O)O [Example 397] | 126 to 127 °C |
| COc1ccc(CN2CCN(C(=O)c3cc4c(C)c(Oc5ccc(NC(=O)c6ccc(C(F)(F)F)cc6)cn5)ccc4n3C)CC2)cc1 [Example 235] | 219 to 221 °C |
| Br.COc1ccc(CN2CCN(C(=O)c3cc4ccc(Oc5ccc(NC(=O)c6ccc(Cl)c(Cl)c6)cn5)cc4n3C)CC2)cc1 [Example 258] | 234.6 to 237.2 °C |
| COc1ccc(CN2CCN(C(=O)c3cc4c(Oc5ccc(N(C)C(=O)c6ccc(C(F)(F)F)cc6)cn5)cccc4n3C)CC2)cc1.O=C(O)C(=O)O [Example 325] | 139 to 141 °C |
| Br.CN(C(=O)c1ccc(C(F)(F)F)cc1F)c1ccc(Oc2ccc3c(c2)cc(C(=O)N2CCN(Cc4ccc5c(c4)OCO5)CC2)n3C)nc1 [Example 319] | 187 to 190 °C |

# next compound below
## Task Dear colleague, please send me the reported melting point for Br.Cn1c(C(=O)N2CCN(Cc3ccc(OCC(F)(F)F)cc3)CC2)cc2cc(Oc3ccc(NC(=O)c4ccc(C(F)(F)F)cc4)cn3)ccc21 [Example 463] when you can.
## Result 236.8 to 237.5 °C

Data origin, for the record: patent US8551999B2
